# Tested on: SF-268 CNS
# EXPERIMENT_NOTES: NCI tumour cell line growth inhibition, 48 h
ENDPOINT: GI50

| COMPOUND | ENDPOINT | OBS_VALUE |
| --- | --- | --- |
| COc1ccc(-c2nc(N3CCN(C(=O)C4CCCCC4)CC3)c3c4c(sc3n2)CCCC4)cc1 | GI50 | 89 µM |
| CCCCN(CCCC)CCCn1c(=O)c2c3ccccc3n(C)c2n2nnc(-c3ccccc3)c12 | GI50 | > 100 µM |
| O=C(NN=C1CCCCC1)c1[nH]c2ccc(F)cc2c1-c1ccccc1 | GI50 | 18.9 µM |
| Cc1ccc(-c2nc(N3CCCNCC3)c3oc(-c4ccccc4)nc3n2)cc1 | GI50 | 1.83 µM |
| Cc1cc(O)cc(C)c1/C=C/c1cncc(-c2nn[nH]n2)c1 | GI50 | > 25 µM |
| O=C(NCc1ccco1)c1ccc(NC2=C(Cl)C(=O)N(Cc3ccccc3)C2=O)cc1 | GI50 | 17.8 µM |
| C=C1C(=O)O[C@@H]2C1C[C@@H](O)C(=C)CC/C=C(\C)CCC[C@H](C)[C@H]2OC(C)=O (some centres not stated) | GI50 | 11 µM |

###

Collected TGI values appear next to each entry.
# Tested on: UACC-62 melanoma
# EXPERIMENT_NOTES: NCI tumour cell line growth inhibition, 48 h
ENDPOINT: TGI

| COMPOUND | MEASUREMENT_TARGET | ENDPOINT | OBS_VALUE |
| --- | --- | --- | --- |
| CNC(=O)Oc1cc(C)c(/C=C/c2cncc(C(=O)NC)c2)c(C)c1 | UACC-62 melanoma | TGI | > 25 µM |
| CC(=O)N1CC(=O)N2C(=O)/C(=C/c3ccc(Cl)cc3)N=C12 | UACC-62 melanoma | TGI | > 100 µM |
| COC(=O)c1c2c(cc3c1CC1(Cc4cc5c(cc4C1=O)CCC5)C3)CCC2 (stereo unspecified) | UACC-62 melanoma | TGI | > 100 µM |
| CN(Cc1ccccc1)C(=NC#N)N(C)Cc1ccccc1 | UACC-62 melanoma | TGI | > 100 µM |
| CCOC(=O)c1ccc(Nc2nc3ccccc3nc2C(=O)OCC)cc1 | UACC-62 melanoma | TGI | > 100 µM |
| CN(C)CCOC(c1ccccc1)c1ccccc1 | UACC-62 melanoma | TGI | 48.4 µM |
| N#CS.N=C=S.N=C=S.[Cu+2].[NH2-].[NH2-].[NH2-].[NH2-].c1ccc2ncccc2c1 | UACC-62 melanoma | TGI | 37 µM |
| c1ccc2c(c1)[nH]c1c2nc2ncccn21 | UACC-62 melanoma | TGI | > 100 µM |
| Cc1nn(C)cc1P(=S)(c1ccccc1)c1ccccc1 | UACC-62 melanoma | TGI | > 100 µM |
| O=C(NCc1ccncc1)C12CC3CC(C1)CC(c1ccc(Cl)cc1)(C3)C2 | UACC-62 melanoma | TGI | 18.7 µM |
| Cc1cc(O)cc(C)c1/C=C/c1cncc(-c2nn[nH]n2)c1 | UACC-62 melanoma | TGI | > 25 µM |
| COc1ccc(OC)c(CC(C)N)c1 (stereo unspecified) | UACC-62 melanoma | TGI | > 100 µM |
| CN1CC(CNC(=O)OCc2ccccc2)CC2c3cccc4c3c(cn4C)CC21 (stereo unspecified) | UACC-62 melanoma | TGI | 3.17 µM |
| Clc1cc2n[se]nc2cc1Cl | UACC-62 melanoma | TGI | > 100 µM |
| COc1ccc(-c2nc(N3CCN(C(=O)C4CCCCC4)CC3)c3c4c(sc3n2)CCCC4)cc1 | UACC-62 melanoma | TGI | > 100 µM |
| Cc1cn2c(/C=N/N=C(N)N)c(-c3cccnc3)nc2s1 | UACC-62 melanoma | TGI | 23.6 µM |
